Data provenance is the supplement of paper PMC7877785.

# MEASUREMENT_DESCRIPTION: self-splicing fitness, log relative to wild type (ln ratio); higher = more splicing; Tetrahymena group I intron in knt gene, E. coli kanamycin selection, DiMSum; sequences stand for … in CUCUCU…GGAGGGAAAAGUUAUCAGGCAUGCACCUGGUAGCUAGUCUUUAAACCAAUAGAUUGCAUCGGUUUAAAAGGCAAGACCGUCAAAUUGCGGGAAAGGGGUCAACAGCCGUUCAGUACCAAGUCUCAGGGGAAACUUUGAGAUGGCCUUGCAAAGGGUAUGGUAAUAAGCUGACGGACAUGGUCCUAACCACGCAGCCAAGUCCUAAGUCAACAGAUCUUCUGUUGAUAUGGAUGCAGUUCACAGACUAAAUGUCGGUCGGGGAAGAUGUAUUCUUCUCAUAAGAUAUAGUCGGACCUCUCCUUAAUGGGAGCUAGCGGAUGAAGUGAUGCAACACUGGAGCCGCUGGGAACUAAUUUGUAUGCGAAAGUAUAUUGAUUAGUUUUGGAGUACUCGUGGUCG;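 note: selection with 25 µg/mL kanamycin versus none on LB agar overnight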
# TEST_SETTINGS: 37 °C
Label rule met when self-splicing fitness (ln) >= -0.3; otherwise rule not met.

ACUUAGCAAUAUUACGAUAC    rule not met
GAUCAGCAAUAUUACGUGUC    rule not met
GUUAAGCAAUAUUACGUCAU    rule met
ACAUAGCAAUAUUACGAACC    rule not met

Req: Is it the case that `GGCCAGCAAUAUUACGACAG` has self-splicing fitness (ln) reaching or exceeding -0.3?
Resp: rule not met

Req: Would you kindly repeat that for `CCCUAGCAAUAUUACGUAAC` ?
Resp: rule not met

Req: Now the sequence `UGUCAGCAAUAUUACGGCGG`
Resp: rule met

Req: Next entry: `UUCGAGCAAUAUUACGGCGA`
Resp: rule not met

Req: // repeat for `CCUCAGCAAUAUUACGACUG` and report
Resp: rule not met

Req: Thanks! And `UUGUAGCAAUAUUACGGAGA` ?
Resp: rule not met

Req: Check `AUGGAGCAAUAUUACGAUCA` too.
Resp: rule not met

Req: Try this sequence too: `CAGUAGCAAUAUUACGGCUC`
Resp: rule met

Req: Then what about the sequence `CUGCAGCAAUAUUACGGGUU` ?
Resp: rule not met

Req: Proceed to `ACCAAGCAAUAUUACGAACC`
Resp: rule not met

Req: Try this sequence next: `GUGUAGCAAUAUUACGCUCA`
Resp: rule met
